src = patent US20130309248A1

Molecular target: HA of virus A/Brisbane/59/2007 (H1N1) (influenza A virus (H1N1))
Assay: cell-based or functional assay

Binder	Neutralization titer SK50
CR8016 (antibody, V domains shown) VH: EVQLVESGGDLVQPGGSLRLSCSASEFSFSSYWMSWVRQAPGKGLEWVANMKQDGSEKYYVDSVKGRFTISRDNAKNSLYLQMNSLRGEDTAVYYCARGSCDDSWTGCHDAFDI VL: QSVVTQPPSVSGAPGQRVTISCTGSSSNIGAGYDVHWYQQLPGTAPKLLIYGNNNRPSGVPDRFSGSRSGPLALLAITGLQAEDEADYYCQSYDSSLSVYV	> 40 µg/mL
CR8003 (antibody, V domains shown) VH: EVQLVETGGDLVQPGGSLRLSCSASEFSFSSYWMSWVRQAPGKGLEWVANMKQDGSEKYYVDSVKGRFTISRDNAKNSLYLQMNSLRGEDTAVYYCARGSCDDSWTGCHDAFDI VL: VLTQPPSVSVAPGQTARIACGGNNIGSKSVHWYQQKPGQAPVLVVYDDSARPSGIPERFSGSNSGNTATLTISRVEAGDEADYYCQVWESGSDLRLL	> 40 µg/mL
